Items are presented alongside their recorded growth inhibition.
assay: NCI Yeast Anticancer Drug Screen. Data for the rad14 strain (AID 159);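 note: 0% = growth of vehicle-treated control cultures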; details: S. cerevisiae rad14 strain growth inhibition; at 3.7 µM; hits give high values
This is part of a sample that, as a whole, favours compounds with a hit. Of some 79,000 tested, about 15% had one in any assay.
Give just the numeric value; % need not be written.

compound	growth inhibition / %
Nc1ccc(S(=O)(=O)Nc2ccc(Nc3c4ccccc4nc4ccccc34)cc2)cc1	18

Q: Which growth inhibition is reported for this compound? C/C=C/[P+](c1ccccc1)(c1ccccc1)c1ccccc1
Result: 27

Q: Which growth inhibition is reported for this compound? S=c1nc(Cl)cc2[nH]c(Cl)cn12
Result: -1

Q: Which growth inhibition is reported for this compound? COc1cc(N(C)C)ccc1/C=C\c1ccnc2ccccc12
Result: -4

* * *

assay: NCI Yeast Anticancer Drug Screen. Data for the mlh1 strain (AID 171);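 note: 0% = growth of vehicle-treated control cultures of the same strain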; conditions: S. cerevisiae mlh1 strain growth inhibition; at 100.0 µM; hits give high values
The panel holds about 79,000 compounds, 15% with a hit somewhere; the sample as a whole holds those more often.
Decide by growth inhibition: equal to or exceeding 90% means rule met, less means rule not met.

// known answers, use as guide
compound	cat
C/C(=N\NC(=S)NC1CCCC1)c1ccccn1	rule met
NP1(Oc2ccc(F)cc2)=NP(N)(Oc2ccc(F)cc2)=NP(Oc2ccc(F)cc2)(Oc2ccc(F)cc2)=N1 (stereo unspecified)	rule not met
CCOC(=O)CNC(=O)c1[nH]cnc1/N=N/N(C)C	rule met
O=[N+]([O-])/C(C(Cl)=C(Cl)Cl)=C1/OCCS1	rule met

Q: Is growth inhibition at least 90%? Consider Cc1ccc(N=Nc2ccc(O)c(C)c2)cc1
Result: rule not met

Q: Is growth inhibition at least 90%? Consider NCc1c(O)ccc2ccccc12
Result: rule met

* * *

Items are presented alongside their recorded growth inhibition.
experiment: NCI Yeast Anticancer Drug Screen. Data for the mec2-1 strain (AID 157); conditions: S. cerevisiae mec2-1 strain, at 1.2 µM, hits give high values
The panel holds about 79,000 compounds, 15% with a hit somewhere; the sample as a whole holds those more often.
Give just the numeric value; % need not be written.

Here are 8 compounds together with their reported answers.
compound	value-units	growth inhibition
Nc1ccc2c(=S)c3ccccc3[nH]c2c1	%	9
C=Cc1cnc([N+](=O)[O-])n1C	%	11
O=C1C=CC(=O)N1c1ccc2c(c1)OCO2	%	-3
Oc1ccc(C=Nc2ccccc2O)cc1	%	23
O=C(N/N=C\c1c(Cl)cccc1Cl)N/N=C/c1c(Cl)cccc1Cl	%	21
Nc1ccc2c(c1)sc1ccccc12	%	1
CNc1nc(C)nc2c1cnn2-c1ccc([N+](=O)[O-])cc1	%	0
N#C/C(=C/N1C(=O)/C(=C/c2ccc([N+](=O)[O-])cc2)SC1=S)c1nc2ccccc2s1	%	9

Q: Which growth inhibition is reported for this compound? S=C(S)NCC1CCC(CNC(=S)S)CC1 (configuration not stated)
Result: -9

Q: Which growth inhibition is reported for this compound? Cn1ncc2cc3c(Nc4ccc(Cl)cc4)cccc3nc21
Result: -5

Q: Which growth inhibition is reported for this compound? CC(C)c1[nH]nc(C(N)=O)c1N=NN(C)C
Result: 1

Q: Which growth inhibition is reported for this compound? CCC(C)(c1ccc(O)c(C)c1)c1ccc(O)c(C)c1
Result: -66

* * *

test: NCI Yeast Anticancer Drug Screen. Data for the mec2-1 strain (AID 157); conditions: S. cerevisiae mec2-1 strain, at 33.0 µM, hits give high values
About 79,000 compounds went through this panel and 15% of them were active in at least one assay; those are over-represented in the sample as a whole.
Decide by growth inhibition: equal to or exceeding 40% means 1.0, less means 0.0.

compound	cat
S=P(N1CC1)(N1CC1)N1CC1	0.0
Cc1ccccc1NC(=O)Cc1csc(N/N=C2\NC(=O)/C(=C/c3cccc([N+](=O)[O-])c3)S2)n1	0.0
CCCCCCCCN1C(=O)c2ccccc2C1=O	0.0

Q: Is growth inhibition at least 40%? Consider S=C1SCN(CCc2ccccc2)CN1CCc1ccccc1
Result: 1.0

Q: Is growth inhibition at least 40%? Consider COC(=O)c1ccc2c(c1)Cc1ccccc1-2
Result: 0.0

Q: Is growth inhibition at least 40%? Consider CC(=O)OCC1OC(O[C@H]2C=C[C@@H](C(=O)OCc3ccccc3)n3c(=O)n(-c4ccccc4)c(=O)n32)C(OC(C)=O)C(OC(C)=O)C1OC(C)=O (stereo partly specified)
Result: 0.0

Q: Is growth inhibition at least 40%? Consider COC(=O)c1cccc(C)c1C(=O)c1c(C)cc(C)cc1C
Result: 0.0

Q: Is growth inhibition at least 40%? Consider C/C=C/[P+](c1ccccc1)(c1ccccc1)c1ccccc1
Result: 1.0
